Experiment: NCI Yeast Anticancer Drug Screen. Data for the mlh1 rad18 strain (AID 175)
Settings: S. cerevisiae mlh1 rad18 strain growth inhibition; at 50.0 µM; stronger effect = higher value
About 79,000 compounds went through this panel and 15% of them were active in at least one assay; those are over-represented in the sample as a whole.
Reported growth inhibition by item:
Quick note: give the figure in %, leave out the unit.

{"molecule": "CC/C=C/C(C)c1cc(C(=O)O)ccc1OC (stereo unspecified)", "units.label": "%", "growth inhibition": 18}
{"molecule": "O=C(Nc1nc(C23CC4CC(CC(C4)C2)C3)cs1)c1cc2ccc(O)cc2oc1=O", "units.label": "%", "growth inhibition": -16.6}
{"molecule": "COC(=O)CCC(=O)c1ccc2c(c1)CC1(C2)Cc2ccc(C(=O)CCC(=O)OC)cc2C1", "units.label": "%", "growth inhibition": 2.9}

[Q] Entry CC(=O)C1CCC2C3CCC4CC5(CCC4(C)C3C(=O)CC12C)NC(C(=O)O)CS5 (stereo unspecified) has what growth inhibition?
[A] -1.35

[Q] Entry S=c1[nH]nc(-c2ccccc2)n1/N=C\c1ccc(-c2ccc(Cl)cc2)o1 has what growth inhibition?
[A] 5.5

[Q] Entry O=C1/C(=C/c2ccc(O)cc2)CCc2ccc([N+](=O)[O-])cc21 has what growth inhibition?
[A] -55.4
